Recorded zone of inhibition at 40 µg/disc for the following compounds
Test system: Candida albicans
Assay: Antifungal activity against Candida albicans ATCC 10231 at 40 ug/disk after 48 hr by disk-diffusion method
Format: functional
Conditions: ATCC 10231, 48 h, read-out: DIZ
measured metric: zone of inhibition at 40 µg/disc

[
  {
    "compound": "O=C1CC(c2ccccc2)CC2=C1C(c1ccc(C3C4=C(CC(c5ccccc5)CC4=O)OC4=C3C(=O)CC(c3ccccc3)C4)cc1)C1=C(CC(c3ccccc3)CC1=O)O2 (stereo not drawn)",
    "measured metric": "zone of inhibition at 40 µg/disc",
    "value measured": "8 mm"
  },
  {
    "compound": "CC1(C)CC(=O)C2=C(C1)OC1=C(C(=O)CC(C)(C)C1)C2c1ccc(C2C3=C(CC(C)(C)CC3=O)OC3=C2C(=O)CC(C)(C)C3)cc1",
    "measured metric": "zone of inhibition at 40 µg/disc",
    "value measured": "9 mm"
  },
  {
    "compound": "CC1(C)CCC2=C(C1=O)C(c1cccc(C3C4=C(CCC(C)(C)C4=O)OC4=C3C(=O)C(C)(C)CC4)c1)C1=C(CCC(C)(C)C1=O)O2",
    "measured metric": "zone of inhibition at 40 µg/disc",
    "value measured": "9 mm"
  }
]
